Tested on: Escherichia coli
ASSAY_TEXT: Antibacterial activity against Escherichia coli TOP10 harboring pOXA-97
Format: functional
ENDPOINT_LABEL: MIC (µg/mL)
I only need the number, in µg/mL, no unit after it.

Reported MIC for C[C@H]1[C@H](NC(=O)/C(=N\OC(C)(C)C(=O)O)c2csc(N)n2)C(=O)N1S(=O)(=O)O was 0.12

Reported MIC for CO/N=C(\C(=O)N[C@@H]1C(=O)N2C(C(=O)[O-])=C(C[N+]3(C)CCCC3)CS[C@H]12)c1csc(N)n1 [CEFEPIME] was 0.06

Reported MIC for CC(C)(O/N=C(\C(=O)N[C@@H]1C(=O)N2C(C(=O)[O-])=C(C[n+]3ccccc3)CS[C@H]12)c1csc(N)n1)C(=O)O was 0.06
